System: E coli carrying specific resistance determinants
Assay: MIC by broth microdilution, E coli carrying specific resistance determinants
Assay type: cell-based
Settings: clinical isolate AG163 APH(3′)-I; Table 2 (Example 4)
In this section, each of the molecules is paired with its reported MIC AG163 E. coli APH(3′)-I.

CCC[C@@H]1C(CO)O[C@H](O[C@@H]2C(N)C[C@@H](N)C(O)[C@H]2O[C@@H]2O[C@H](CO)[C@H](O[C@H]3C[C@@H](CN)[C@@H](O)C(O)C3N)C2O)[C@@H](N)C1O (stereo partly drawn) | >64 µg/mL

Entry NC[C@@H]1O[C@H](O[C@H]2[C@@H](O)[C@H](O[C@@H]3[C@@H](O)[C@H](N)C[C@H](N)[C@H]3O[C@H]3O[C@H](CO)[C@@H](O)C[C@H]3N)O[C@@H]2CO)[C@H](N)[C@@H](O)[C@@H]1O [Lividomycin B, lividomycin B, reference compound] , MIC AG163 E. coli APH(3′)-I reported as >128 µg/mL

The recorded MIC AG163 E. coli APH(3′)-I for entry NC[C@@H]1O[C@H](O[C@H]2[C@@H](O)[C@H](O[C@@H]3[C@@H](O)[C@H](N)C[C@H](N)[C@H]3O[C@H]3O[C@H](CN)[C@@H](O)[C@H](O)[C@H]3N)O[C@@H]2CO)[C@H](N)[C@@H](O)[C@@H]1O [neomycin, Neomycin B, reference compound] equals >64 µg/mL

FYI, the data here is from patent US11466044B2.
